Below, each entry is listed with its recorded OD450 nM of sample-2.
target: T1, wild type human PD-L1-Fc protein (SEQ ID NO: 107) (human); assay: ELISA on captured PD-L1-Fc, as in Example 18A
T1 construct: Extracellular human PD-L1 (amino acid 19-238) with Fc fragment of human IgG1, expressed in 293T cells and used as culture supernatant; also called WT PD-L1; wild-type PD-L1
T1 sequence (chain, as listed by the source limits assumed): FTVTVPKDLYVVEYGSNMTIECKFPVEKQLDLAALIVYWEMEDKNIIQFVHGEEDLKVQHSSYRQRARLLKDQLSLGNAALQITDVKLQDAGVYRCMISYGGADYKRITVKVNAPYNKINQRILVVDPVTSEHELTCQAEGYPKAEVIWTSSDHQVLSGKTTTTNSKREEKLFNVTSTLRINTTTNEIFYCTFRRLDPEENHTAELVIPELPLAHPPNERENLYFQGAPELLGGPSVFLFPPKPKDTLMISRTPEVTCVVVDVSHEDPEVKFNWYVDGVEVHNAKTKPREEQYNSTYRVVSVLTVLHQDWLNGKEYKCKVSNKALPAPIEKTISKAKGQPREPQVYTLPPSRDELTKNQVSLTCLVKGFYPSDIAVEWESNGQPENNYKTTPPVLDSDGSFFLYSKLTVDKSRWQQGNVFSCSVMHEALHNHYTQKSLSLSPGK

| Binder | OD450 nM of sample-2 |
| --- | --- |
| 18G4 (antibody, V domains shown, Mouse monoclonal from hybridoma; also called mouse monoclonal antibody 18G4) VH: QVQLQQPGTALVKPGASVKLSCKASGYTFSSYYIHWVKQRPGQGLEWIGNINPFNGGSIYNEKFKNKASLTVDTSSNTAYMQLSSLTSEDSAVYYCARWHFDYWGQGTSLTVSS VL: DIVMTQSPSSLAVTAGEKVTLKCKSSQSLLWSGNQNNYLSWYQQKQGQPPKLLIYGASIRESWVPDRFTGSGSGTDFTLTIGNVSAEDLAVYYCQHNHGSFLPYTFGGGTRLEIK | 1.34 OD450 |
| 23F11-H4L4 (antibody, V domains shown, Human IgG1 constant region with N297A; biotinylated in the alanine-scan ELISA; also called 23F11-H4L4-bio; humanized 23F11) VH: QVQLVQSGAEVKKPGASVKLSCKASGYIFTTYWMHWVKQRPGQGLEWIGMIQPNSGGTKYNEKFKKKATLTVDKSISTAYMELSRLTSDDTAVYYCARGAGTVDYFDYWGQGSTLTVSS VL: DIVLTQSPASLAVSVGQRATITCRASESVDIYGNSFMHWYQQKPGQPPKLLIYRASNLESGIPARFSGSGSRTDFTLTINPVEANDTATYYCQQSTEDPYTFGGGTKLEIK | 1.33 OD450 |
| 23A11-H3L5 (antibody, V domains shown, Human IgG1 constant region with N297A; biotinylated in the alanine-scan ELISA; also called 23A11-H3L5-bio; humanized 23A11) VH: LVQLVQSGAEVKKPGASVKLSCKASGYIFTTYWIHWVKQRPGQGLEWIGMIQPNSGGTKYNDQFKNRATLTVDKSISTAYMELSRLTSDDTAVYYCARGAGTVDYFDYWGQGTTLSISS VL: DIVLTQSPASLAVSVGQRATITCRASESVDIYGNSFMHWYQQKPGQAPKLLIYRASNLESGIPARFSGSGSRTDFTLTINPVEANDTATYYCQQSNDDPYTFGGGTKLETK | 1.47 OD450 |
| 4B6 (antibody, V domains shown, Mouse monoclonal purified from hybridoma; also called mouse monoclonal antibody 4B6) VH: EVQLQQSGPELVKPGASVKISCKASGYVFTDYYMNWVKQSHGKSLEWIGDINPNNGGTSYNHKFKGKATVTVDKSSRTAYMELLSLTSEDSAVYYCVKWGDGPFAYWGQGTLVTVSA VL: DIVMTQSQKFMSTSVGDRVSITCKASQNVGAAVAWYQQKPGQSPKLLIYSASNRYTGVPDRFTGSGSGTDFTLTISNMQSEDLADYFCQQYSNYPTFGSGTKLGIK | 1.54 OD450 |
| 22C9 (antibody, V domains shown, Mouse monoclonal from hybridoma; also called mouse monoclonal antibody 22C9) VH: QVQLQQSGAELVKPGASVKLSCKASGYTFTSYWMHWVWQRPGQGLEWIGMIHPNSDITNCNENFKHTVTLTVDKSSSTAYMQLSSLTSEDSAVFYCARSDGSSYWYFDVWGTGTTVTVSS VL: SIVMTQTPKFLSVSAGDRVTITCKAGQSVNNDVAWYQQKPGQSPKLLIYYASNRYTGVPDRFTGSGYGTDFTFTISTVQAEDLAVYFCQQDFSSPLTFGAGTKLELK | 1.94 OD450 |
